Cited source for all entries: paper PMC5540273

tested on: DCAMKL3; construct: gene DCLK3; settings: concentration: 1 μM, replicates: in singlicate; n = 1;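 further: KINOMEscan kinase panel screen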
metric: %Inh (%)
Just the number in %, nothing appended.

Answered examples (3):
>  <compound>
Cc1ccccc1Cn1ccn2c(=O)cc(N3CCOCC3)nc12

>  <%Inh (%)>
4

$$$$
>  <compound>
O=C(Nc1n[nH]c2cc(-c3ccsc3)ccc12)C1CC1

>  <%Inh (%)>
74

$$$$
>  <compound>
CCCCc1nn2ncccc2c1-c1ccnc(NC2CC2)n1

>  <%Inh (%)>
0

$$$$

Recorded %Inh for `Fc1ccc(-c2nn3cccc(F)c3c2-c2ccncc2)cc1` , please?
10

Could you do the same for `CC(=O)c1c(C)c2cnc(Nc3ccn(C)n3)nc2n(C2CCCC2)c1=O` , please?
0

Could you do the same for Cn1cncc1C(=O)NC1CCN(c2ccnc(Nc3ccc(F)cc3)n2)C1 (stereo not shown) , please?
0

Could you do the same for `CS(=O)(=O)Cc1ccc(Nc2nccc(-c3c(-c4cccc(NC(=O)C5CCCCC5)c4)nn4ncccc34)n2)cc1` , please?
0

----------
Form field: %Inh (one value per entry).
tested on: TAK1; construct: gene MAP3K7; details: concentration: 1 μM, replicates: in singlicate; n = 1
State the result as a value with its unit after it.

Answered examples (4):
>  <molecule>
CN1c2ccc(-c3ccc(C(N)=O)cc3)cc2-c2[nH]ncc2S1(=O)=O

>  <%Inh>
31%

$$$$
>  <molecule>
Cc1ccc(NC(=O)Nc2ccc(Cl)cc2)cc1-c1ccc(C(=O)Nc2ccncc2)cc1 [GSK1398472]

>  <%Inh>
0%

$$$$
>  <molecule>
CCn1c(-c2c(N)noc2C)nc2cnccc21 [SB-737856]

>  <%Inh>
0%

$$$$
>  <molecule>
Cc1ccc(-c2nc(Nc3ccncc3)c3ccccc3n2)s1 [GSK189015]

>  <%Inh>
0%

$$$$

Now for the molecule whose %Inh we want.
Recorded %Inh for CNc1nc(-c2ccc3c(N)n[nH]c3c2)cc(N2C[C@@H](C(=O)NC3CCCCC3)OC[C@H]2C)n1 [GSK2375584] , please?
0%

----------
Form field: %Inh (one value per entry).
system: MTOR; conditions: concentration: 1 μM, replicates: in singlicate; n = 1
Just the number in %, nothing appended.

>  <molecule>
Nc1nccc(-c2c(-c3ccc(F)cc3)ncn2C2CCN(Cc3ccccc3)CC2)n1 [SB-219980]

>  <target.of.assay>
MTOR

>  <numeric.value>
23

$$$$
>  <molecule>
COc1cccc(CNC(=O)NC2CCN(c3ccnc(Nc4ccc(F)cc4)n3)C2)c1 (centres unmarked) [GSK1379723]

>  <target.of.assay>
MTOR

>  <numeric.value>
15

$$$$
>  <molecule>
Cn1cncc1C(=O)NC1CCN(c2ccnc(Nc3ccc(F)cc3)n2)C1 (centres unmarked) [GSK1379717]

>  <target.of.assay>
MTOR

>  <numeric.value>
0

$$$$
>  <molecule>
Cc1ccccc1-c1cc(-c2c[nH]nc2-c2ccccn2)ccn1 [GW680061]

>  <target.of.assay>
MTOR

>  <numeric.value>
30

$$$$
>  <molecule>
O=c1cc(N2CCOCC2)nc2n(Cc3ccccc3F)ccn12 [GSK2297428]

>  <target.of.assay>
MTOR

>  <numeric.value>
13

$$$$

Recorded %Inh for O=C(Nc1n[nH]c2nc(-c3cccs3)c(Br)cc12)C1CC1 [SB-735297] , please?
0

Could you do the same for Cc1cnc(N)c(/C=C/c2cncc(C(=O)NCCc3ccc(Cl)cc3Cl)c2)c1.Cl [GSK190937] , please?
6

Could you do the same for O=C(Nc1n[nH]c2nc(-c3cccs3)c(Br)cc12)C1CCCC1 [SB-743341] , please?
12

Could you do the same for COC(=O)C(NC(=O)NC1CCN(c2ccnc(Nc3ccc(F)cc3)n2)C1)c1ccccc1 (centres unmarked) [GSK1379712] , please?
31

Could you do the same for Nc1ncnc2occ(-c3ccc4c(c3)CCN4C(=O)Cc3cc(F)ccc3F)c12 [GSK2645446] , please?
3

Could you do the same for CC[C@@H]1CO[C@H](C(=O)Nc2ccccc2)CN1c1cc(-c2ccc3c(N)n[nH]c3c2)nc(NC)n1 [GSK2376236] , please?
9

Could you do the same for COc1ccc(Nc2nccc(N3CCC(NC(=O)c4cc5ccccc5s4)C3)n2)cc1 (centres unmarked) [GSK1379738] , please?
15

Could you do the same for COc1nccc(-c2c(-c3ccc(F)cc3)ncn2CCCN2CCOCC2)n1 [SB-282852] , please?
0

Could you do the same for `COc1ccc(CSc2nnc(-c3ccc4ncsc4c3)o2)cc1C(F)(F)F` , please?
8

----------
test system: YANK1; construct: gene STK32A; details: concentration: 1 μM, replicates: in singlicate; n = 1
metric: %Inh

Answered examples (2):
>  <compound>
COC(=O)C(NC(=O)NC1CCN(c2ccnc(Nc3ccc(F)cc3)n2)C1)c1ccccc1 (stereo not drawn) [GSK1379712]

>  <%Inh>
0%

$$$$
>  <compound>
COc1ccc(Nc2nccc(N3CCC(NC(=O)C(C)c4ccc(Cl)cc4)CC3)n2)cc1 (stereo not drawn) [GSK1379812]

>  <%Inh>
10%

$$$$

Now for the compound whose %Inh we want.
Recorded %Inh for CCn1c(-c2ccccc2)nc2cnccc21 [SB-733416] , please?
0%

----------
test system: MEK3; construct: gene MAP2K3; settings: concentration: 1 μM, replicates: in singlicate; n = 1
Class T: %Inh at least 8%. Class F: %Inh below 8%.

Example entries and their recorded answers appear below.
>  <molecule>
COc1cccc(C2=C(Nc3cc(Cl)c(O)c(Cl)c3)C(=O)NC2=O)c1

>  <target.of.assay>
MEK3

>  <classification>
F

$$$$
>  <molecule>
COc1ccc(-c2coc3ccc(-c4nnc(C)o4)cc23)cc1

>  <target.of.assay>
MEK3

>  <classification>
F

$$$$
>  <molecule>
COc1ccc(Nc2nccc(-c3ccc(NC(=O)c4cc5cc(F)ccc5[nH]4)cc3)n2)cc1

>  <target.of.assay>
MEK3

>  <classification>
T

$$$$
>  <molecule>
O=C(Nc1n[nH]c2cc(-c3ccsc3)ccc12)C1CC1

>  <target.of.assay>
MEK3

>  <classification>
T

$$$$
>  <molecule>
O=C(Nc1n[nH]c2nc(-c3ccco3)c(Br)cc12)C1CCN(Cc2ccccc2)C1.O=C(O)[C@H](O)[C@@H](O)C(=O)O (stereo not shown)

>  <target.of.assay>
MEK3

>  <classification>
T

$$$$

In plain terms: is recorded %Inh at least 8% for `CCn1c(-c2ccccc2)nc2cnccc21` ?
F

Could you do the same for `COc1nccc(-c2c(-c3ccc(F)cc3)ncn2CCCN2CCOCC2)n1` , please?
T

Could you do the same for `Cc1ccc(NC(=O)Nc2ccc(Cl)cc2)cc1-c1ccc(C(=O)Nc2ccncc2)cc1` , please?
F

Could you do the same for `Cc1ccc(-c2nc(Nc3ccncc3)c3ccccc3n2)s1` , please?
F

Could you do the same for `CNc1nc(-c2ccc3c(N)n[nH]c3c2)cc(N2C[C@@H](C(=O)NC3CCCCC3)OC[C@H]2C)n1` , please?
F

Could you do the same for `CNC(=O)c1ccc(C)c(-n2c(C)cc(OCc3ccc(F)cc3F)c(Br)c2=O)c1` , please?
F

Could you do the same for `Cn1cnc2c(N)ncnc21` , please?
T

----------
system: AMPK-alpha2; construct: gene PRKAA2; settings: concentration: 1 μM, replicates: in singlicate; n = 1
Form field: %Inh (one value per entry).
State the result as a value with its unit after it.

Answered examples (4):
>  <compound>
CC[C@@H]1CO[C@H](C(=O)Nc2ccccc2)CN1c1cc(-c2ccc3c(N)n[nH]c3c2)nc(NC)n1

>  <result>
1%

$$$$
>  <compound>
Cc1c(Cn2c3ccccc3n3c(=O)cc(N4CCOCC4)nc23)cccc1C(F)(F)F

>  <result>
0%

$$$$
>  <compound>
O=C1NC(=O)C(c2ccc(Cl)cc2)=C1Nc1cccc(Cl)c1

>  <result>
0%

$$$$
>  <compound>
O=C(Nc1n[nH]c2nc(-c3cccs3)c(Br)cc12)C1CC1

>  <result>
8%

$$$$

Recorded %Inh for `Cc1ccc(NC(=O)Nc2ccc(Cl)c(C(F)(F)F)c2)cc1-c1ccc(C(=O)Nc2ccncc2)cc1` , please?
16%

Could you do the same for `Nc1cccc(-c2ccc3c(N)n[nH]c3c2)n1` , please?
0%

----------
tested on: RET; conditions: concentration: 1 μM, replicates: in singlicate; n = 1
Form field: %Inh (one value per entry).
Just the number in %, nothing appended.

>  <molecule>
O=c1cc(N2CCOCC2)nc2n(Cc3cccc(Cl)c3Cl)c3ccccc3n12 [GSK2299009]

>  <%Inh (%)>
52

$$$$
>  <molecule>
Cn1cncc1C(=O)NC1CCN(c2ccnc(Nc3ccc(F)cc3)n2)C1 (stereo not drawn) [GSK1379717]

>  <%Inh (%)>
0

$$$$
>  <molecule>
COC(=O)C(Cc1ccccc1)NC(=O)NC1CCN(c2ccnc(Nc3ccc(F)cc3)n2)C1 (stereo not drawn) [GSK1379714]

>  <%Inh (%)>
21

$$$$
>  <molecule>
COc1cc2ncnc(Nc3cccc(Br)c3)c2cc1OC.Cl [GI230329]

>  <%Inh (%)>
47

$$$$
>  <molecule>
Nc1nccc(-c2c(-c3ccc(F)cc3)ncn2C2CCN(Cc3ccccc3)CC2)n1 [SB-219980]

>  <%Inh (%)>
6

$$$$

Recorded %Inh for O=C1NC(=O)C(c2ccc(Cl)cc2)=C1Nc1ccc(O)cc1 [SB-340867] , please?
0

Could you do the same for COc1nccc(-c2c(-c3ccc(F)cc3)ncn2CCCN2CCOCC2)n1 [SB-282852] , please?
0

Could you do the same for COc1ccc(Nc2nccc(N3CCC(NC(=O)C(C)c4ccc(Cl)cc4)CC3)n2)cc1 (stereo not drawn) [GSK1379812] , please?
38

Could you do the same for `CC(=O)c1c(C)c2cnc(Nc3ccc(N4CCNCC4)cn3)nc2n(C2CCCC2)c1=O` , please?
0
